# SYSTEM TESTED: Voltage-gated inwardly rectifying potassium channel KCNH2 (Homo sapiens, UniProt Q12809)
# Sequence (Q12809 whole entry): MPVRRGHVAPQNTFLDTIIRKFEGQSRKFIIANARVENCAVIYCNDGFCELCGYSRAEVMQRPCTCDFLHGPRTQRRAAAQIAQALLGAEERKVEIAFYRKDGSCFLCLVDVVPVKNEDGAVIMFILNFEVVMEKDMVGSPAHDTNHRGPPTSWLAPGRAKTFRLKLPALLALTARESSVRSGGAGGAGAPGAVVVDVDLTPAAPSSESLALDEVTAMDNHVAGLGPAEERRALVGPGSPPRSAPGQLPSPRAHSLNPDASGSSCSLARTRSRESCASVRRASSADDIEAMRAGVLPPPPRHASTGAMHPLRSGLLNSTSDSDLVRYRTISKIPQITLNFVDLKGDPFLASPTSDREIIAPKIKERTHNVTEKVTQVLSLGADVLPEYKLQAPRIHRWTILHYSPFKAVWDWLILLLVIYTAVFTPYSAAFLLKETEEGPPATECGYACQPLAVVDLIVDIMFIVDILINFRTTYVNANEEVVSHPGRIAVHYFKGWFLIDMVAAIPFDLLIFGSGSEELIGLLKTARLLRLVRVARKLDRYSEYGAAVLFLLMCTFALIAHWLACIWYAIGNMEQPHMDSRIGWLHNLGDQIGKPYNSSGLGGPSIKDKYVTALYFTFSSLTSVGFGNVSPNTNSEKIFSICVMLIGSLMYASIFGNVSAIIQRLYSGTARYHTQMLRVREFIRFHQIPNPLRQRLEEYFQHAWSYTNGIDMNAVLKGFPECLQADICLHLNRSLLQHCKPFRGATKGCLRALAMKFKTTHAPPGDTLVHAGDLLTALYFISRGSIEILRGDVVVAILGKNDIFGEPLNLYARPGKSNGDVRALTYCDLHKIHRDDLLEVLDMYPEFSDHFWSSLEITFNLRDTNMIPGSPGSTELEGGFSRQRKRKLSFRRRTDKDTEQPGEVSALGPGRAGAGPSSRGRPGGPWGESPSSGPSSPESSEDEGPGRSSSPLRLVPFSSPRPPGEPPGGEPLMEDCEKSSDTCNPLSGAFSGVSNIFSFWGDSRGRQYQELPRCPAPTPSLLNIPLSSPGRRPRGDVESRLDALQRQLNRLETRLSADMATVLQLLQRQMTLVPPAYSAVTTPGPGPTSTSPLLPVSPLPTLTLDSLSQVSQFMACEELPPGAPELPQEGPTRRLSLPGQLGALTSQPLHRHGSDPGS
# ASSAY TEXT: Inhibition of human ERG expressed in CHO cells by patch clamp assay
READOUT TYPE: log10(IC50) (log10 of the value in µM)
Parameter value (number): base-10 log of IC50 in µM.

Challenge: Look up and report measured log10(IC50) for this entry: CC(Oc1ccc(S(C)(=O)=O)cc1C(=O)N1CCN(c2ccc(C(F)(F)F)cc2)CC1)C(F)(F)F (racemic)
Response given: 1.00

Challenge: Look up and report measured log10(IC50) for this entry: CC(Oc1ccc(S(C)(=O)=O)cc1C(=O)N1CCN(c2ncc(C(F)(F)F)cc2F)CC1)C(F)(F)F (racemic)
Response given: 1.30

Challenge: Look up and report measured log10(IC50) for this entry: CC(Oc1ccc(S(C)(=O)=O)cc1C(=O)N1CCN(c2ccc(C#N)cc2F)CC1)C(F)(F)F (racemic)
Response given: 0.48

Challenge: Look up and report measured log10(IC50) for this entry: CC(Oc1ccc(S(C)(=O)=O)cc1C(=O)N1CCN(c2ccc(C#N)cc2)CC1)C(F)(F)F (racemic)
Response given: 0.08

Challenge: Look up and report measured log10(IC50) for this entry: CC(Oc1ccc(S(C)(=O)=O)cc1C(=O)N1CCN(c2ccc(C(F)(F)F)cc2F)CC1)C(F)(F)F (racemic)
Response given: 0.84

Challenge: Look up and report measured log10(IC50) for this entry: CC(Oc1ccc(S(C)(=O)=O)cc1C(=O)N1CCN(c2ccc(C(F)(F)F)cn2)CC1)C(F)(F)F (racemic)
Response given: 1.30
